biological target: UniProtKB Q16539; test: Inhibition of LPS Induced TNF-alpha Production in Human PBMC
Reported pIC50 values for a set of compounds
Entry type: numeric. Quantity: pIC50, the -log10 of concentration in molar units.

Use these answered entries as a reference point.
* COC[C@H](C)Nc1nccc(-c2c(-c3ccc(F)cc3)c(=O)n3n2CCC3)n1 | 7.80
* C[C@H](Nc1nccc(-c2c(-c3ccc(F)cc3)c(=O)n3n2CCC3)n1)c1ccccc1 | 9.40

Turning now to a further record.
Prompt line: Endpoint output: pIC50 of C[C@H](Nc1nccc(-c2c(-c3ccc(F)cc3)c(=O)n3n2CCC3)n1)C(C)(C)O . Value?
Response line: 8.10

----------
molecular target: MAPK14 (human) (UniProt Q16539); assay: Inhibition of LPS Induced TNF-alpha Production in THP1 Cells
Sequence (Q16539 whole entry, looked up): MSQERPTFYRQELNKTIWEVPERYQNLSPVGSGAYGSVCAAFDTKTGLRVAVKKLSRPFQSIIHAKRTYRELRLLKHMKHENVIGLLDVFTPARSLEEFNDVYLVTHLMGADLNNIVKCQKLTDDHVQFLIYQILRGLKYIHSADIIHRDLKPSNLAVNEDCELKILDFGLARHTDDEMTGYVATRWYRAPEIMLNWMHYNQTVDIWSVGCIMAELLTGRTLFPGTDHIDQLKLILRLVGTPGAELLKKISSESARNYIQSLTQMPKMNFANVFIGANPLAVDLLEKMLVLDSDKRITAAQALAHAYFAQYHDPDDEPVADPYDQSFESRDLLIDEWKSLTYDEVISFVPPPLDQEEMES
pIC50: −log10 of the molar value.
Criterion: pIC50 meeting or surpassing 7. Met: 1 (yes). Not met: 0 (no).

- C=CCNc1nccc(-c2c(-c3ccc(F)cc3)c(=O)n3n2CCC3)n1: 1 (yes)

Turning to the following molecule.
Prompt line: Quick check: does O=c1c(-c2ccc(F)cc2)c(-c2ccnc(NCc3ccccn3)n2)n2n1CCC2 have pIC50 greater than or equal to 7?
Response line: 0 (no)

----------
biological target: MAPK14 (human) (UniProt Q16539); test: Inhibition of LPS Induced TNF-alpha Production in THP1 Cells
Reported log10 IC50 values for a set of compounds
Short version: log10 scale, IC50, nM.

• O=c1c(-c2ccc(F)cc2)c(-c2ccnc(Nc3c(Cl)ncnc3Cl)n2)n2n1CCC2 = 2.68

Turning now to a further record.
Prompt line: Endpoint output: log10 IC50 of O=c1c(-c2ccc(F)cc2)c(-c2ccnc(NCC3CC3)n2)n2n1CCC2 . Value?
Response line: 1.97

----------
Reported IC50 values for a set of molecules
molecular target: MAPK14 (human) (UniProt Q16539); assay: Inhibition of LPS Induced TNF-alpha Production in THP1 Cells
Report only the number, with the unit nM understood.

Prompt line: Endpoint output: IC50 of COCCCNc1nccc(-c2c(-c3ccc(F)cc3)c(=O)n3n2CCC3)n1 . Value?
Response line: 301

Prompt line: Endpoint output: IC50 of C[C@H](Nc1nccc(-c2c(-c3ccc(F)cc3)c(=O)n3n2CCCC3)n1)C(C)(C)O . Value?
Response line: 260

Prompt line: Endpoint output: IC50 of Cc1ccc([C@H](C)Nc2nccc(-c3c(-c4ccc(F)cc4)c(=O)n4n3CCC4)n2)cc1 . Value?
Response line: 37

Prompt line: Endpoint output: IC50 of C[C@H](Nc1nccc(-c2c(-c3ccc(F)cc3)c(=O)n3n2CCCC3)n1)c1ccccc1 . Value?
Response line: 29

Prompt line: Endpoint output: IC50 of CC(C)(C)Nc1nccc(-c2c(-c3ccc(F)cc3)c(=O)n3n2CCC3)n1 . Value?
Response line: 24

----------
Reported pIC50 values for a set of molecules
molecular target: MAPK14 (human); assay: Inhibition of LPS Induced TNF-alpha Production in THP1 Cells
Entry type: numeric. Quantity: pIC50, the -log10 of concentration in molar units.

Prompt line: Endpoint output: pIC50 of C[C@@H](Nc1nccc(-c2c(-c3ccc(F)cc3)c(=O)n3n2CCC3)n1)c1ccccc1 . Value?
Response line: 7.57

Prompt line: Endpoint output: pIC50 of COC(=O)[C@H](Nc1nccc(-c2c(-c3ccc(F)cc3)c(=O)n3n2CCC3)n1)c1ccccc1 . Value?
Response line: 6.83
